- Protocol Description: protein stability index of a GFP-peptide fusion (yeast GPS) (PSI 1-4); higher = more stable; sorted into four equal gates, so the index is relative within each strain
- Condition: san1∆
Property: protein stability index; scope: individual sequences
Parameter Measured: protein stability index

Residue Sequence: SFYRVEKIKKINYHQYI [SSN2]
Recorded Value: 1.39
--
Residue Sequence: NFKGLAKEKERMLEEAI [YIL149C/MLP2]
Recorded Value: 3.48
--
Residue Sequence: VEILFEAGASAELDDCR [RPO21]
Recorded Value: 2.93
--
Residue Sequence: RVRAESLHSNSFSLTVS [YJL039C/NUP192]
Recorded Value: 1.43
--
Residue Sequence: KDILNLASEVGDPALVY [ECM29]
Recorded Value: 3.39
--
Residue Sequence: TMTMDVFNDAHVLNKVT [RPN1]
Recorded Value: 2.4
--
Residue Sequence: LATNSLVEEFMLLANIS [DIS3]
Recorded Value: 1.74
--
Residue Sequence: SYFSPINSSNEALVQAF [YCG1]
Recorded Value: 2.69
--
Residue Sequence: AAPAGVAGGVAGGEAGE [RPP1A]
Recorded Value: 1.66
--
Residue Sequence: KEIYTTLGNQMLSAHNI [YJR042W/NUP85]
Recorded Value: 3.12
--
Residue Sequence: KMSDGFNGADIRNCATE [RPT4]
Recorded Value: 3.35
--
Residue Sequence: KVLRKFRVQSQSNYGIY [NUT1]
Recorded Value: 1.34
--
Residue Sequence: QEEEGELEHLTKKSKLE [DSN1]
Recorded Value: 3.14
--
Residue Sequence: KNAVVRSKFGGDFLDFQ [ARP7]
Recorded Value: 3.31
--
Residue Sequence: DDVTCDKLSVSEISDGK [SIN4]
Recorded Value: 2.81
--
Residue Sequence: NVLDYFAESPFFDKTSN [MED6]
Recorded Value: 2.87
--
Residue Sequence: QNTSNMNAGGLFGAKPQ [YGR119C/NUP57]
Recorded Value: 3.34
--
Residue Sequence: LQHLRSRCHLVTKDTKK [SRP68]
Recorded Value: 2.93
--
Residue Sequence: EARFWHLVELLLVFRNA [YDL116W/NUP84]
Recorded Value: 2.06
--
Residue Sequence: IVNVNFMKSVIRSREAF [DIS3]
Recorded Value: 2.2
--
Residue Sequence: MSEEQDPLLAGLGETSG [RPT4]
Recorded Value: 3.57
--
Residue Sequence: RPNGRKDHDLKIPLPEV [POP1]
Recorded Value: 2.99
--
Residue Sequence: TMFTAEQSELLKAQITS [SNF2]
Recorded Value: 2.57
--
Residue Sequence: KAIPTFSFGKPFFSSNT [YIL149C/MLP2]
Recorded Value: 2.94
--
Residue Sequence: QLDLCKLYFQLFLNTGC [SRP68]
Recorded Value: 1.45
--
Residue Sequence: DDDILIIRPILGKVRFA [SRB4]
Recorded Value: 1.93
--
Residue Sequence: QDSTSENVKIINYLLTL [RPN2]
Recorded Value: 3.16
--
Residue Sequence: VTVDADIDDILKKGEQK [ISW2]
Recorded Value: 2.35
--
Residue Sequence: VSFYFEDGTIESYNQND [SIN4]
Recorded Value: 2.41
--
Residue Sequence: RTLTAVHDKVLEDMVFP [RPS7B]
Recorded Value: 2.81

All figures here come from the supplement of paper PMC9732359.
